System: HOP-62 NSCLC
Assay: NCI tumour cell line growth inhibition, 48 h
So basically: TGI at 40 µM or higher? That is true. Lower than 40 µM? That is false.

Example results:
{"columns": ["compound", "tgt", "group"],
 "data": [
  ["Cc1ccc(S(=O)(=O)NC(=O)NC2=NC(C)(C)N(c3ccc(Cl)c(Cl)c3)C(N)=N2)cc1", "HOP-62 NSCLC", "true"],
  ["CCOC(=O)C(C)c1nc2c(Cl)c3ncccc3cc2[nH]c1=O (stereo not given)", "HOP-62 NSCLC", "true"],
  ["C=CCn1c2c(sc1=S)C(S)N=CN2 (stereo not given)", "HOP-62 NSCLC", "true"],
  ["CCCCCCCCCCCCOC1C(C(CC(=O)NCCN2CCCC2)NS(=O)(=O)c2cc(Cl)cc(Cl)c2)OC2OC(C)(C)OC21 (stereo not given)", "HOP-62 NSCLC", "false"],
  ["COP(=O)(OC)C12CCOCCN1c1ccccc1C2=O (stereo not given)", "HOP-62 NSCLC", "true"],
  ["C[C@]12CC[C@H](O)C=C1CC[C@@H]1[C@@H]2CC[C@]2(C)C(c3ccc(=O)oc3)CC[C@]12O (stereo not given in full)", "HOP-62 NSCLC", "false"],
  ["COc1c(O)c(O)cc2c1-c1ccc(OC)c(=O)cc1C(NC(C)=O)CC2 (stereo not given)", "HOP-62 NSCLC", "true"],
  ["COC(=O)c1cc(C)ccc1CC(Cc1ccc(C)cc1)C(=O)OC (stereo not given)", "HOP-62 NSCLC", "true"],
  ["c1ccc(C2=Nn3c(CCCCCCCCc4nnc5n4N=C(c4ccccc4)CS5)nnc3SC2)cc1", "HOP-62 NSCLC", "true"]
]}

Next, consider the following compound.
Assess whether reported TGI for COC(=O)C1=C(C)NC(C)=C([N+](=O)[O-])C1c1cccc(N=O)c1 (stereo not given) sits at 40 µM or higher.
false

---

System: NCI-H522 lung
Assay: NCI tumour cell line growth inhibition, 48 h; in the data active means GI50 below about 0.43 µM; inactive means the rest
// allowed return values: active, inactive

Example results:
{"columns": ["smiles.string", "group"],
 "data": [
  ["S=C1SC2=Nc3ccccc3CN2C2=NCCN12", "inactive"],
  ["COc1ccc2c3c(Nc4ccc(/C(C)=N/O)cc4)[nH]c4ccccc4c-3c(N=O)c2c1", "inactive"],
  ["O=C(N/N=C/c1ccc([N+](=O)[O-])o1)c1ccc(O)cc1", "inactive"],
  ["NC(=S)N/N=C/c1cc(-c2cccc(N)c2)ccn1", "active"]
]}

Next, consider the following compound.
# outcome recorded in this test, key = O=C(Nc1ccc(-n2cc(-c3ccncc3)c(-c3ccc(O)c(Cl)c3)n2)cc1)Nc1cccc(Cl)c1Cl
inactive

---

System: HCC-2998 colon
Test: NCI tumour cell line growth inhibition, 48 h
quantity.kind: TGI

Any idea what TGI was measured for Cc1nn(C(=O)c2ccc(Cl)cc2)c2c1C(c1ccc(O)cc1)SC(N)=N2 (stereo not drawn) ?
> 10 µM

Another: CC(C)C1=C2CCC3(C)C(CCC4C5C6OCC5(CCC6(C)C)CCC43C)C2(C)CC1 (stereo not drawn)
33.7 µM

Another: CC1=C[C@@H](C)C[C@]2(C)CC[C@H](O2)[C@]23CC[C@](C(=O)O)(C[C@H](O2)[C@@H]2O[C@@](C)(CC2=O)[C@@H](O)[C@H]2CC[C@@]4(CCC[C@@H](O4)[C@H](C)C(=O)O[C@H]4C[C@H]([C@]5(O)OCC[C@H](C)[C@@H]5O)O[C@H]4C=C1)O2)O3
> 10 µM

Origin of values: PubChem BioAssay (NCI)
